Parameter: MIC. Scope: all listed entries.
Test system: Vibrio cholerae
MEASUREMENT_PROTOCOL: Antimicrobial activity against Vibrio cholerae after 24 hrs by agar well diffusion assay
Assay type: functional
# value in µg/mL; strip the unit string

Answered examples (2):
INSERT INTO results (cpd_smiles, endpoint_label, experimental_result) VALUES
  ('O=S1(=O)c2ccc(cc2)Cn2cc[n+](c2)Cc2ccc(cc2)C[n+]2ccn(c2)Cc2ccc1cc2.[Br-].[Br-]', 'MIC', 70),
  ('O=S1(=O)c2ccc(cc2)Cn2cc[n+](c2)Cc2ccccc2C[n+]2ccn(c2)Cc2ccc1cc2.[Br-].[Br-]', 'MIC', 35);

Shift focus to the following entry.
Given item O=C(O)c1cn(C2CC2)c2cc(N3CCNCC3)c(F)cc2c1=O , the value recorded as its MIC is 10
